tested on: HER2 positive breast cancer (HER2+ BC) cell line JIMT-1; assay: MTS cell viability assay, JIMT-1 breast cancer cell line; format: cell-based; settings: Homo sapiens, 0 to 10 μM, FIG. 3, one range stated for both cell lines and three compounds
pIC50: −log10 of the molar value.
endpoint: pIC50

Record excerpt, results attached:
[[record]]
molecule = "COC(=O)Nc1nc2cc(Sc3ccc(N4CCS(=O)(=O)CC4)cc3)ccc2[nH]1"
result = "6.46 to 6.82"

[[record]]
molecule = "COC(=O)Nc1nc2cc(Sc3ccc(N4CC(C)N(S(C)(=O)=O)C(C)C4)cc3)ccc2[nH]1 (stereo not drawn)"
result = "6.46 to 6.82"


With those in mind, consider the next molecule.
*Q* Please report pIC50 for the following molecule: `COC(=O)Nc1nc2cc(Sc3ccc(N4CCC(O)CC4)cc3)ccc2[nH]1`
*A* 6.46 to 6.82
